B1: NELF-E aptamer (parent)
chain: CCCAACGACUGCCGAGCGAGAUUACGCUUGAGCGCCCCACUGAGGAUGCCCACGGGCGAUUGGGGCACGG

# Variants of: B1
# test-summary: HiTS-RAP
# condition-notes: with NELF-E (Drosophila)
Classification field. Basis: Kd. Definitions: lower bin: < 7 nM; middle bin: ≥ 7 nM and < 10 nM; upper bin: ≥ 10 nM

**Query** Given U22G C33G , name the class its Kd places it in.
**Result** lower bin

**Query** Hi there! Could you help me figure out the category for A8G U10A please?
**Result** lower bin

**Query** Lab note: which band did C6U A39G land in?
**Result** upper bin

**Query** Class for A4G C50A ?
**Result** upper bin

**Query** Each variant maps to one class by Kd. Which class for "C37A" ?
**Result** upper bin

**Query** Tag the class for U22G A46G
**Result** upper bin

**Query** Band assignment needed for U23G A52U please.
**Result** upper bin

**Query** Hello team, could you let me know which band the following variant falls into: G14A A67U
**Result** lower bin

**Query** Could you tell me which band C13G U28C belongs to?
**Result** middle bin

**Query** Exercise: read the entry C17G C40G and state which class it falls under.
**Result** lower bin

**Query** // bin(item) where item = A4U A43G
**Result** upper bin

**Query** Into which category would you place U10G G44U ?
**Result** middle bin

**Query** Hi there! Could you help me figure out the category for G11A C13U please?
**Result** lower bin

**Query** Exercise: read the entry U22C C57U and state which class it falls under.
**Result** lower bin

**Query** Note: place this variant into its band. Item: "G58A"
**Result** middle bin

**Query** Which of the defined bands does the recorded Kd of "G64C" sit within?
**Result** middle bin

**Query** Band assignment needed for A5U C37A please.
**Result** upper bin

**Query** State the class of the variant shown: A15U G16U
**Result** middle bin

**Query** Please let me know in which category the item G7U A67G belongs.
**Result** middle bin

**Query** In plain terms, what class is G11U C37U ?
**Result** middle bin

**Query** Band for the recorded Kd of A24G C40G ?
**Result** lower bin

**Query** Determine which band this variant sits in: A8U C57U
**Result** lower bin

**Query** Could you tell me which band C9G U28A belongs to?
**Result** lower bin

**Query** Given C9G U22C , name the class its Kd places it in.
**Result** lower bin

**Query** Quick check: band for U10G U61A
**Result** upper bin

**Query** Assign a bin to G11A U41A
**Result** upper bin

**Query** Class for A4U U47G ?
**Result** lower bin

**Query** Dear colleague, I would appreciate it if you could identify the bin for G14A A43G and reply at your convenience.
**Result** middle bin

**Query** Which Kd category applies to G20U A31G here?
**Result** middle bin

**Query** Hello team, could you let me know which band the following variant falls into: A5G C33U
**Result** lower bin

**Query** Which class does A24G G64U fall in?
**Result** lower bin

**Query** Which bin should I file A5U A39G under?
**Result** middle bin

**Query** Class for C6G A46U ?
**Result** upper bin

**Query** Sort "C49G" into one of the categories.
**Result** middle bin

**Query** Input C13G G63A ; output its category
**Result** upper bin

**Query** Which Kd band matches A21G U23G ?
**Result** lower bin

**Query** Tag the class for "A46G"
**Result** upper bin

**Query** Form field 'band' for G20U G65U
**Result** middle bin

**Query** Assign a bin to C6G U29G
**Result** lower bin

**Query** For this variant, which bin applies? A39U A52G
**Result** upper bin
